experiment: activity coefficient (dimensionless); of the first substance listed, at infinite dilution; xn = mol fraction of the nth substance listed; settings: 298.15 K; 101.33 kPa; Liquid; Chromatography; x1 = 0
Parameter measured: activity coefficient

                       compound  quantitative_readout
0            CC=O [ethanal] + O                  4.14
1       CCC(C)=O [butanone] + O                  26.1
2  CCCC(C)=O [pentan-2-one] + O                   148
3             CCO [ethanol] + O                  3.77
4   CCCCC(C)=O [2-hexanone] + O                   265
